TARGET_ENTITY: SARS-CoV-2
METHOD_NOTES: cell-based
For each of the molecules below, state its EC50.
Write down the numeric answer in nM and omit the unit.

Notebook: CC(C)C[C@H](NC(=O)OCc1cccc(Cl)c1)C(=O)N[C@@H](C[C@@H]1CCNC1=O)C(O)S(=O)(=O)O (stereo partly drawn) , EC50 read as 1100

GET /value?item= CC(C)C[C@H](NC(=O)OCc1ccccc1Cl)C(=O)N[C@@H](C[C@@H]1CCNC1=O)C(O)S(=O)(=O)O (stereo partly drawn) &field=EC50 returns 1200

Documented EC50 of CC(C)C[C@H](NC(=O)OCc1ccc2ccccc2c1)C(=O)N[C@@H](C[C@@H]1CCNC1=O)C(O)S(=O)(=O)O (stereo partly drawn) : 800

###

TARGET_ENTITY: SARS-CoV-2 3CL protease (Severe acute respiratory syndrome coronavirus 2, UniProt P0DTD1)
Assay type: biochemical
Design: unit not given here
SETTINGS: Conc 100 µM
Avg less than 90 is criterion met; Avg greater than or equal to 90 is criterion not met.

Q. Determine if O=C(NCC1(O)CCc2ccccc21)c1cccnc1S (stereo not drawn) shows Avg strictly lower than 90.
A. criterion met

Q. Does O=C(NCC1CCCCC1O)c1cccnc1S (stereo not drawn) have Avg strictly under 90?
A. criterion not met

Q. Quick check: Avg of "CC(C)Cc1ncc(CNC(=O)c2cccnc2S)s1" under 90?
A. criterion not met

###

For each entry below, report its IC50 value.
TARGET_ENTITY: PLpro (Severe acute respiratory syndrome coronavirus 2)
METHOD_NOTES: Protease selectivity panel: PLpro
Format: biochemical
SETTINGS: SARS-CoV-2 recombinant

Value of measured IC50 for the entry CC(C)C[C@H](NC(=O)OCc1cccc(C(F)(F)F)c1)C(=O)N[C@@H](C[C@@H]1CCNC1=O)C(O)S(=O)(=O)O (some centres unmarked) : > 100 µM

The value of IC50 measured for the molecule CC(C)C[C@H](NC(=O)OCc1ccccc1Cl)C(=O)N[C@@H](C[C@@H]1CCNC1=O)C(O)S(=O)(=O)O (some centres unmarked) turned out to be > 100 µM

###

TARGET_ENTITY: SARS-CoV-2 3CL protease (Severe acute respiratory syndrome coronavirus 2, UniProt P0DTD1)
Type: biochemical
Parameters: unit not given here
SETTINGS: Conc 10 µM; average response of dose-response curve
I'd appreciate it if you could supply Avg values for the items below.
Please respond with just the number, no unit label.

# value of Avg, SARS-CoV-2 3CL protease (Severe acute respiratory syndrome coronavirus 2, UniProt P0DTD1), item "O=C(c1ccc(S)nc1)N1CCCC1" = 0.4

Form field Avg for item "CN1Cc2cc(C(=O)CCl)ccc2NC1=O" on SARS-CoV-2 3CL protease (Severe acute respiratory syndrome coronavirus 2, UniProt P0DTD1): 15.7

Result for "O=C(NCCc1ccc(F)cc1)n1ccnc1" , tested on SARS-CoV-2 3CL protease (Severe acute respiratory syndrome coronavirus 2, UniProt P0DTD1), Avg: 29.9

Note to self: Avg of "CN1C(=O)CCc2cc(C(=O)CCl)ccc21" with SARS-CoV-2 3CL protease (Severe acute respiratory syndrome coronavirus 2, UniProt P0DTD1) was 5.9

Field Avg (SARS-CoV-2 3CL protease (Severe acute respiratory syndrome coronavirus 2, UniProt P0DTD1)), entry "O=C(CCl)N1CCN(c2ccccc2[N+](=O)[O-])CC1" : 20

Item "O=C(CCl)c1ccc(N2CCCC2=O)cc1" ; assay system SARS-CoV-2 3CL protease (Severe acute respiratory syndrome coronavirus 2, UniProt P0DTD1); Avg reported as 46.5
